Every entry's value here was drawn from patent US9724309B2.

- method: Particle size of drug particles by electron microscope
- Format: physicochemical
- testConditions: 200 particles
experimentalReadout: 50 vol % average particle size (um)
Value expressed in um; do not type the unit.

Some molecules with known 50 vol % average particle size results, for comparison:
- molecule: "COc1cc(S(=O)(=O)[O-])ccc1O.O.[K+] [Potassium guaiacolsulfonate particles A, Potassium guaiacolsulfonate]"
  scaleUnit: "um"
  50 vol % average particle size: 2.1
- molecule: "COc1cc(S(=O)(=O)[O-])ccc1O.O.[K+] [Potassium guaiacolsulfonate particles C, Potassium guaiacolsulfonate]"
  scaleUnit: "um"
  50 vol % average particle size: 80.4
- molecule: "COc1cc(S(=O)(=O)[O-])ccc1O.O.[K+] [Potassium guaiacolsulfonate particles, Potassium guaiacolsulfonate]"
  scaleUnit: "um"
  50 vol % average particle size: 5.0
- molecule: "Cn1c(=O)c2[nH]cnc2n(C)c1=O [Aminophyllin particles, Aminophyllin]"
  scaleUnit: "um"
  50 vol % average particle size: 4.3
- molecule: "COc1cc(S(=O)(=O)[O-])ccc1O.O.[K+] [Potassium guaiacolsulfonate particles B, Potassium guaiacolsulfonate]"
  scaleUnit: "um"
  50 vol % average particle size: 40.4

Kindly consider the entry below.
Ask: Need 50 vol % average particle size of N[C@@H](CCC(=O)N[C@@H](CS)C(=O)NCC(=O)O)C(=O)O [Glutathione (reduced form) particles, Glutathione (reduced form)] , thanks.
Reply: 5.3
